The values you see were collected from patent US20100069384A1.

Parameter pIC50: see the listing below.
- study system: human recombinant V2 vasopressin receptors (Homo sapiens)
- Sequence (P30518 whole entry): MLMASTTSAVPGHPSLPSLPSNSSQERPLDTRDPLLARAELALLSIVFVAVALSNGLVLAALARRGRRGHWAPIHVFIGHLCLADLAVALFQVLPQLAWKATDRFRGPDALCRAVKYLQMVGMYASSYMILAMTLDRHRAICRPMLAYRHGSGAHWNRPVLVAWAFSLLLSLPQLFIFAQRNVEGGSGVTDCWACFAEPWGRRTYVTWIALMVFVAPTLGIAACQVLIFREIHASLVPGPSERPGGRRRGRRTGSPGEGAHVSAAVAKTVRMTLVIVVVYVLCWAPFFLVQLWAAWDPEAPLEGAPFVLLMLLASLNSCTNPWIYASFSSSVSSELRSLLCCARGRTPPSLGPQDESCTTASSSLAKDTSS
- protocol description: in vitro binding test, displacement of [H3]-AVP from V2 vasopressin receptors
- condition: CHO membranes, 3.5 nM [H3]-AVP, 45 minutes at 25° C.
Notebook: values listed as pIC50 are -log10 of the concentration (mol/L).

Worked cases, answers included:
- compound: "CCOc1ccc2c(c1)C(C)(c1cc(C(=O)NCCN3CCOCC3)ccc1Cl)C(=O)N2S(=O)(=O)c1ccc(C(=O)NC(C)(C)C)cc1OC (centres unmarked) [Example 36]"
  pIC50: 8.28
- compound: "COc1cc(C(=O)NC(C)(C)C)ccc1S(=O)(=O)N1C(=O)C(C)(c2ccccc2Cl)c2cc(O)ccc21 (centres unmarked) [Example 144]"
  pIC50: 8.59
- compound: "CCOc1ccc2c(c1)C(C)(c1ccccc1)C(=O)N2S(=O)(=O)c1ccc(C(=O)NC(C)(C)C)cc1OC (single isomer, unassigned) [Example 99]"
  pIC50: 9.00
- compound: "CCOc1ccc2c(c1)C(C)(c1cc(NC(=O)C3CCN(C)CC3)ccc1Cl)C(=O)N2S(=O)(=O)c1ccc(C(=O)NC(C)(C)C)cc1OC (centres unmarked) [Example 62]"
  pIC50: 8.60
- compound: "CCNC(=O)c1ccc(Cl)c(C2(C)C(=O)N(S(=O)(=O)c3ccc(C(=O)NC(C)(C)C)cc3OC)c3ccc(OCC)cc32)c1 (centres unmarked) [Example 21]"
  pIC50: 8.52
- compound: "CCOc1ccc2c(c1)C(C)(c1ccccc1Cl)C(=O)N2S(=O)(=O)c1ccc(C(=O)NC(C)(C)C)cc1 (single isomer, unassigned) [Example 12]"
  pIC50: 8.72
- compound: "CCOc1ccc2c(c1)C(C)(c1ccccc1Cl)C(=O)N2S(=O)(=O)c1ccc(C(=O)NC(C)(C)CO)cc1 (centres unmarked) [Example 72]"
  pIC50: 8.89

Consider the compound CCOc1ccc2c(c1)C(C)(c1cc(C(=O)N[C@@H]3CCNC3)ccc1Cl)C(=O)N2S(=O)(=O)c1ccc(C(=O)NC(C)(C)C)cc1OC (single isomer, unassigned) [Example 43] and give its measured pIC50.
8.89

====

- study system: V1b receptors (Homo sapiens, UniProt P47901)
- Sequence (P47901 whole entry): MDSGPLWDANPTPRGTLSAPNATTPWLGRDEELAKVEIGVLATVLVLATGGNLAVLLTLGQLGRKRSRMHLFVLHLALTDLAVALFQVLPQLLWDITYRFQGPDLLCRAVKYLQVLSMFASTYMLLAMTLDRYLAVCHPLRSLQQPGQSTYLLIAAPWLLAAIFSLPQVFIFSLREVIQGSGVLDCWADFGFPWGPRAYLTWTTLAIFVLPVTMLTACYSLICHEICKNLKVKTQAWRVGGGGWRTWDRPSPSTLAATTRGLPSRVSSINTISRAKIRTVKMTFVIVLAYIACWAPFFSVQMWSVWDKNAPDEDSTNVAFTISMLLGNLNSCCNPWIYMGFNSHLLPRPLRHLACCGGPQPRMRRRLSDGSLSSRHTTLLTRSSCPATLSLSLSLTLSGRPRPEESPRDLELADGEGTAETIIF
- protocol description: affinity for V1b receptors (method of Sugimoto et al.)
- Format: binding
Parameter IC50: see the listing below.

Consider the molecule CCNC(=O)c1ccc(Cl)c(C2(C)C(=O)N(S(=O)(=O)c3ccc(C(=O)NC(C)(C)C)cc3OC)c3ccc(OCC)cc32)c1 (centres unmarked) and give its measured IC50.
> 1000 nM

Note, next up: CCOc1ccc2c(c1)C(C)(c1ccccc1Cl)C(=O)N2S(=O)(=O)c1ccc(C(=O)NC(C)(C)C)cc1 (single isomer, unassigned)
> 1000 nM

Note, next up: CCOc1ccc2c(c1)C(C)(c1ccccc1)C(=O)N2S(=O)(=O)c1ccc(C(=O)NC(C)(C)C)cc1OC (single isomer, unassigned)
> 1000 nM

Note, next up: CCOc1ccc2c(c1)C(C)(c1cc(C(=O)NCCN3CCOCC3)ccc1Cl)C(=O)N2S(=O)(=O)c1ccc(C(=O)NC(C)(C)C)cc1OC (centres unmarked)
> 1000 nM

Note, next up: CCOc1ccc2c(c1)C(C)(c1cc(NC(=O)C3CCN(C)CC3)ccc1Cl)C(=O)N2S(=O)(=O)c1ccc(C(=O)NC(C)(C)C)cc1OC (centres unmarked)
> 1000 nM
